Can you tell me IC50 for the items I'm about to list?
target: human V2 receptor (Homo sapiens (Human), UniProt P30518); test: Cellular in vitro assay for determining vasopressin receptor activity (V2, CRE-luciferase); details: CHO cell line transfected with human V2 receptor; [Arg8]-vasopressin at EC50 concentration; read-out: IC50 hV2
Sequence (P30518 whole entry): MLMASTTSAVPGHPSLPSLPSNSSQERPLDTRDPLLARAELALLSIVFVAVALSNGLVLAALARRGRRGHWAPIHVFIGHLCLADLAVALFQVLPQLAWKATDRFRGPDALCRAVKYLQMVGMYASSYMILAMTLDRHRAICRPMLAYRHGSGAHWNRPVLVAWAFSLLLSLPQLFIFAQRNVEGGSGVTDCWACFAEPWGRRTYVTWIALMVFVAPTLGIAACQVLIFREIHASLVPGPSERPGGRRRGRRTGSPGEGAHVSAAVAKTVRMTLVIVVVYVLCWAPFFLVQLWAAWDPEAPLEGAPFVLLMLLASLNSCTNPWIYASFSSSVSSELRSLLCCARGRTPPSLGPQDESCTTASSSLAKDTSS

Record request: IC50 value, item O=C(NC(Cn1c(-c2ccc(Cl)cc2)nn(Cc2ncn(-c3ncccc3Cl)n2)c1=O)C(F)(F)F)C1(C(F)(F)F)CC1 (racemic) [Example 41]
57 nM

Same question, O=C(NC(Cn1c(-c2ccc(Cl)cc2)nn(Cc2ncn(-c3ncccc3Cl)n2)c1=O)C(F)(F)F)[C@@H]1C[C@H](F)CN1 (mixture of isomers) [Example 48] this time
305 nM

Entry O=C(CCC(F)(F)F)NC(Cn1c(-c2ccc(Cl)cc2)nn(Cc2ncn(-c3ncccc3C(F)(F)F)n2)c1=O)C(F)(F)F (racemic) [Example 59] please
75 nM

Another compound to check: O=C(CN1CCOC1=O)NC(Cn1c(-c2ccc(Cl)cc2)nn(Cc2ncn(-c3ncccc3Cl)n2)c1=O)C(F)(F)F (racemic) [Example 20]
520 nM

Same read-out for O=C(NC(Cn1c(-c2ccc(Cl)cc2)nn(Cc2ncn(-c3ncccc3Cl)n2)c1=O)C(F)(F)F)C1CCS(=O)(=O)C1 (stereo not shown) [Example 30] ?
213 nM

Next record, please: O=C(NC(Cn1c(-c2ccc(Cl)cc2)nn(Cc2ncn(-c3ncccc3Cl)n2)c1=O)C(F)(F)F)c1ccc(Cl)s1 (racemic) [Example 52]
470 nM

Thanks! And O=C(NC(Cn1c(-c2ccc(Cl)cc2)nn(Cc2ncn(-c3ncccc3Cl)n2)c1=O)C(F)(F)F)C1CS(=O)(=O)C1 (single isomer, unassigned) [Example 40] ?
9870 nM

Do the same for CC(=O)OC(C)(C)C(=O)NC(Cn1c(-c2ccc(Cl)cc2)nn(Cc2ncn(-c3ncccc3Cl)n2)c1=O)C(F)(F)F (racemic) [Example 16] please
140 nM

Another: O=C(NC(Cn1c(-c2ccc(Cl)cc2)nn(Cc2ncn(-c3ncccc3Cl)n2)c1=O)C(F)(F)F)C1CC1(F)F (stereo not shown) [Example 7]
130 nM

Check CC(C)(O)C(=O)NC(Cn1c(-c2ccc(Cl)cc2)nn(Cc2ncn(-c3ncccc3Cl)n2)c1=O)C(F)(F)F (racemic) [Example 17] too.
280 nM

Entry to check: CC(C)(C)OC(=O)N1CCC(C(=O)NC(Cn2c(-c3ccc(Cl)cc3)nn(Cc3ncn(-c4ncccc4Cl)n3)c2=O)C(F)(F)F)C1 (stereo not shown) [Example 23]
72.5 nM

Follow-up item: O=C(CF)NC(Cn1c(-c2ccc(Cl)cc2)nn(Cc2ncn(-c3ncccc3Cl)n2)c1=O)C(F)(F)F (racemic) [Example 8]
2200 nM

Next: O=C(NC(Cn1c(-c2ccc(Cl)cc2)nn(Cc2ncn(-c3ncccc3Cl)n2)c1=O)C(F)(F)F)C1CCCN1 (stereo not shown) [Example 47]
50 nM

---

Answer each item with its documented pIC50.
biological target: human V2 receptor (Homo sapiens (Human), UniProt P30518); assay: Cellular in vitro assay for determining vasopressin receptor activity (V2, CRE-luciferase); details: CHO cell line transfected with human V2 receptor; [Arg8]-vasopressin at EC50 concentration; read-out: IC50 hV2
Note: pIC50 values are expressed as the negative base-10 logarithm of concentration in M.

Reported pIC50, compound O=C(N[C@@H](Cn1c(-c2ccc(Cl)cc2)nn(Cc2ncn(-c3ncccc3Cl)n2)c1=O)C(F)(F)F)C1(C(F)(F)F)CC1 : ____
7.24

What would you report for O=C(CCC(F)(F)F)NC(Cn1c(-c2ccc(Cl)cc2)nn(Cc2ncn(-c3ncccc3Cl)n2)c1=O)C(F)(F)F (racemic) [Example 32] ?
7.11

Consider next the compound O=C(NC(Cn1c(-c2ccc(Cl)cc2)nn(Cc2ncn(-c3ncccc3Cl)n2)c1=O)C(F)(F)F)C1NCC1(F)F (stereo not shown) in the same way.
6.97

Param item: O=C(NC(Cn1c(-c2ccc(Cl)cc2)nn(Cc2ncn(-c3ncccc3Cl)n2)c1=O)C(F)(F)F)C1CC(F)(F)CN1 (stereo not shown)
7.42

// next record N#CC1(C(=O)NC(Cn2c(-c3ccc(Cl)cc3)nn(Cc3ncn(-c4ncccc4C(F)(F)F)n3)c2=O)C(F)(F)F)CC1 (racemic)
6.31

// same read-out, input: O=C1CC[C@@H](C(=O)NC(Cn2c(-c3ccc(Cl)cc3)nn(Cc3ncn(-c4ncccc4Cl)n3)c2=O)C(F)(F)F)N1 (single isomer, unassigned) [Example 37]
4.49

How about CS(=O)(=O)CC(=O)NC(Cn1c(-c2ccc(Cl)cc2)nn(Cc2ncn(-c3ncccc3Cl)n2)c1=O)C(F)(F)F (single isomer, unassigned) [Example 45] ?
5.64

Entry to check: O=C(CF)NC(Cn1c(-c2ccc(Cl)cc2)nn(Cc2ncn(-c3ncccc3C(F)(F)F)n2)c1=O)C(F)(F)F (racemic)
5.42

Note, next up: CCC(=O)NC(Cn1c(-c2ccc(Cl)cc2)nn(Cc2ncn(-c3ncccc3Cl)n2)c1=O)C(F)(F)F (racemic)
6.59

Next up: O=C(NC(Cn1c(-c2ccc(Cl)cc2)nn(Cc2ncn(-c3ncccc3Cl)n2)c1=O)C(F)(F)F)C1CCO1 (stereo not shown)
6.35

# repeat for O=C(NC(Cn1c(-c2ccc(Cl)cc2)nn(Cc2ncn(-c3ncccc3Cl)n2)c1=O)C(F)(F)F)C1CCNC1 (stereo not shown)
6.15

Next compound up: N#CC1(C(=O)NC(Cn2c(-c3ccc(Cl)cc3)nn(Cc3ncn(-c4ncccc4Cl)n3)c2=O)C(F)(F)F)CC1 (racemic)
6.55

How about CC(F)C(=O)NC(Cn1c(-c2ccc(Cl)cc2)nn(Cc2ncn(-c3ncccc3Cl)n2)c1=O)C(F)(F)F (stereo not shown) ?
6.44

Origin of the recorded values: patent US11149023B2
